assay.info: Solubility
Assay type: physicochemical
settings: pH 7.4, aqueous buffer; read-out: Solubility pH 7.4
# Lookup of reported solubility keyed by entry
The reply should be a number in µM, with the unit left off.

CCCc1nc(C)c2c(=O)[nH]c(-c3cc(S(=O)(=O)N4CCCC4C(=O)N(C)C)ccc3OCC)nn12 (centres unmarked) | 93

Prompt: Requested read-out: solubility. Entry: CCCc1nc(C)c2c(=O)[nH]c(-c3cc(S(=O)(=O)N(C)CC(=O)N(C)CC(=O)N(C)C)ccc3OCC)nn12
Response: 109

Prompt: Reported solubility for CCCc1nc(C)c2c(=O)[nH]c(-c3cc(S(=O)(=O)N(C)CC(=O)N(C)C)ccc3OCC)nn12 : what is it?
Response: 96.1

Prompt: Any idea what its solubility is? The compound is CCCc1nc(C)c2c(=O)[nH]c(-c3cc(S(=O)(=O)N(C)C4(C(=O)N(C)C)CC4)ccc3OCC)nn12
Response: 82.5
